Cited source: patent US9469653B2

Target: human MAO-B enzyme (Homo sapiens (Human), UniProt P27338)
Sequence (P27338 whole entry): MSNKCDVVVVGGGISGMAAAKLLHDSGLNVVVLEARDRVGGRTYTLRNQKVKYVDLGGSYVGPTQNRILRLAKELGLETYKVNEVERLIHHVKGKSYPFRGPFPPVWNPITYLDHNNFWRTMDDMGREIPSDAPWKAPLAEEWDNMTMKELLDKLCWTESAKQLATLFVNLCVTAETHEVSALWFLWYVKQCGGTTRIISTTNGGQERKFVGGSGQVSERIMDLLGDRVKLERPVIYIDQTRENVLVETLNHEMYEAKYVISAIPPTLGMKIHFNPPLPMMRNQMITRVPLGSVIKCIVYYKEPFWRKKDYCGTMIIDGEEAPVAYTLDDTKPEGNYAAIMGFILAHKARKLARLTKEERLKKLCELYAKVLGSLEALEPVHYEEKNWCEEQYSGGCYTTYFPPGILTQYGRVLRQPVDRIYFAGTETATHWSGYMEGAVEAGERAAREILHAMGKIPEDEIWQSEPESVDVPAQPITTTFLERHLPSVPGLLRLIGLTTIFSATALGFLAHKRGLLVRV
Experiment: Screening of MAO-B activity inhibition (Amplex Red monoamine oxidase assay kit, benzylamine substrate)
Format: biochemical
Details: 10 uM of the synthesized compound, pargyline-corrected
Decide using Remaining activity of MAO-B (%): a value greater than or equal to 30% is Satisfied, a smaller one is Not satisfied.

Exercise: Could you verify whether the entry c1ccc(-c2nc3ccc(NC4CCCCC4)nc3o2)cc1 shows Remaining activity of MAO-B (%) of no less than 30%?
Solution: Not satisfied

Exercise: Does Remaining activity of MAO-B (%) meet or surpass 30% for CNc1ccc2nc(-c3ccccc3)sc2n1 ?
Solution: Not satisfied

Exercise: State whether the measured Remaining activity of MAO-B (%) reaches 30%, counting equality as reaching it, for CN(Cc1ccccc1)c1ccc2nc(-c3ccc([N+](=O)[O-])cc3)oc2n1
Solution: Satisfied

Exercise: Could you tell me if the measured Remaining activity of MAO-B (%) of CNc1ccc2nc(-c3cccc(Cl)c3)oc2n1 reaches 30% or more?
Solution: Not satisfied

Exercise: Item CN(Cc1ccccc1)c1ccc2nc(-c3ccc(Cl)cc3)oc2n1 with Remaining activity of MAO-B (%) of 30% or above?
Solution: Not satisfied

Exercise: Given Clc1cccc(-c2nc3ccc(N4CCCC4)nc3o2)c1 , state whether its Remaining activity of MAO-B (%) is at least 30%.
Solution: Not satisfied

Exercise: Assess whether reported Remaining activity of MAO-B (%) for CNc1ccc2nc(-c3ccccc3)oc2n1 sits at 30% or higher.
Solution: Satisfied

Exercise: Hi team, for c1ccc(-c2nc3ccc(N4CCCC4)nc3o2)cc1 , is the recorded Remaining activity of MAO-B (%) at or above 30%?
Solution: Not satisfied

Exercise: Reported Remaining activity of MAO-B (%) at or above 30%? Clc1ccc(-c2nc3ccc(N4CCCCC4)nc3o2)cc1
Solution: Satisfied
